Reported values of growth for individual entries
tested on: MDA-MB-231 breast; test: NCI-60 one-dose screen, 48 h (100 = growth as untreated, 0 = no growth, -100 = all killed); conditions: 10 µM unless noted
This is part of a sample that, as a whole, favours compounds with a hit. Of some 83,000 tested, about 20% had one in any assay.
State just the number; it will be interpreted in %.

Illustrative cases are given below, each with its answer.
COc1cc(CCC[P+](c2ccccc2)(c2ccccc2)c2ccccc2)c(OC)c2c1OCO2
-0.787
CCCCN(C)N=Nc1ccc(C(N)=O)cc1
106
CCCCCCCCCCCCCCCCCCOc1ccc(CC(=O)OCC[N+](C)(C)C)cc1
110

Prompt: Could you share which growth value was measured for `COc1ccc(NC(=O)n2nc(/C=C\c3ccc(O)c(OC)c3)cc2/C=C\c2ccc(O)c(OC)c2)cc1` ?
Completion: 36.5

Prompt: Now try `Cn1cc(-c2cc3ncnc(Nc4ccc(CC(=O)Nc5cc(C(C)(C)C)nn5C)cc4)c3s2)cn1` .
Completion: 47.7

Prompt: Then this compound: `Cc1ccc(-c2nn(C)c(=O)c3noc(-c4ccc(C)cc4)c23)cc1`
Completion: 58.3

Prompt: Next compound up: CC1=C(SCCC(=O)OC(C[Se]C2=C(C)C(=O)c3ccccc3C2=O)C(=O)NC(C)(C)C)C(=O)c2ccccc2C1=O (stereo not given)
Completion: -58

Prompt: Follow-up entry: `COc1ccc(-c2nc3sc(-c4ccc(Cl)cc4)cn3n2)cc1`
Completion: 13.3

Prompt: Also need CC(=O)OC[C@H]1OC(Sc2sc(C(=O)c3ccc(Cl)cc3)c(N)c2-c2nc3ccccc3s2)[C@H](OC(C)=O)[C@@H](OC(C)=O)[C@@H]1OC(C)=O (stereo not given in full) , thanks.
Completion: 56.2

Prompt: Okay, and `COc1ccc(S(=O)(=O)n2c3ccccc3n3ncc(-c4nnc(C)o4)c23)cc1` ?
Completion: 30.1

Prompt: What about this compound? `CNC(=O)c1[nH]cc(-c2ccccc2)c1-c1cc(OC)c2c(c1OC)OCO2`
Completion: 96.2

Prompt: Request: `CCOC(=O)Nc1ccc(C(=O)/C=C/c2ccccc2)cc1`
Completion: 95.9

Prompt: Then what about the compound `Nc1ccccc1-c1cc2c(c3c1[nH]c1ccccc13)CCCCC2` ?
Completion: 90.3

Prompt: Would you kindly repeat that for OC(COc1ccccc1Cl)CN1CCN(c2cccc(Cl)c2)CC1 (stereo not given) ?
Completion: 89.3

Prompt: Now consider CCCCCCN1C(=O)/C(=c2\sc3n(c2=O)C2C(NN=3)N(CC)C(=O)N2CC)c2ccccc21 (stereo not given) .
Completion: 14.8

* * *

test system: UO-31 renal; assay: NCI-60 one-dose screen, 48 h (100 = growth as untreated, 0 = no growth, -100 = all killed); conditions: 10 µM unless noted
The panel holds about 83,000 compounds, 20% with a hit somewhere; the sample as a whole holds those more often.
Endpoint Label: growth (%)
Give the value in % but do not write % after it.

C=CCNc1ccc2c3c(cccc13)C(=O)N(N1C(=O)c3cccc4cccc(c34)C1=O)C2=O
81.1
Cn1cc(-c2ccc3cc(-c4ccc(CC(=O)Nc5cc(C(C)(C)C)nn5C)cc4)cnc3c2)cn1
1.27
c1ccc2cc(C[n+]3ccn(CCCCCCCCCCCCn4cc[n+](Cc5ccc6ccccc6c5)c4)c3)ccc2c1
24.2
CC(=O)Oc1ccccc1C(=O)N=C1[Se]CCCN1C(=O)c1ccccc1OC(C)=O
-55.8
O=C1CCC(C(=O)NCCNCCNC(=O)C2CCC(=O)N2)N1 (centres undefined)
96.5

Prompt: API: value(readout= growth, system= UO-31 renal, query= `COc1ccc(-c2nnc(COc3ccc(Cl)cc3Cl)o2)cc1OC` )
Completion: -36.4

* * *

tested on: UACC-62 melanoma; experiment: NCI-60 one-dose screen, 48 h; conditions: 10 µM unless noted
About 83,000 compounds went through this panel and 20% of them were active in at least one assay; those are over-represented in the sample as a whole. Calls of active or inactive are those of the source. The calls were made as follows: active = growth percent below 10; inactive = the rest.
Outcome field: choose from True (active), False (inactive)

CCCCCCn1c(-c2ccc(C(=O)O/N=C(\N)c3ccc4c(c3)OCO4)cc2)nc(-c2ccccc2)c1-c1ccccc1
False
CCn1cnc2c1c(=O)[nH]c(=O)n2CC1CCC(CNS(=O)(=O)c2ccc(OC3CCOCC3)c(F)c2)CC1 (configuration not stated)
False

Prompt: Dear all, I need the recorded test outcome for `COc1ccc2c(c1)c(-c1ccc(-c3cn(C)c4ccc(OC)cc34)o1)cn2C` , thank you.
Completion: False

Prompt: // query: `Cc1nn(-c2ccccc2)c(-n2ccnc2)c1/C=N/Nc1nc(-c2ccc(F)cc2)cs1`
Completion: False

Prompt: Moving on to `CCCCCCNC(=O)Oc1ccc(/C(=C(\C)c2ccc(OC)cc2)c2ccc(OCCN3CCCCC3)cc2)cc1`
Completion: False

Prompt: Now this one: `COc1cc(/C=C2\C(=O)Nc3ccc(Br)cc32)cc(OC)c1OC`
Completion: False

Prompt: // same read-out, input: CC1=C([Se]CC(OC(=O)[C@@H](CSSC(C)(C)C)NC(=O)OC(C)(C)C)C(=O)NC(C)(C)C)C(=O)c2ccccc2C1=O (some centres not stated)
Completion: True

Prompt: Entry `COc1cc(CCC[P+](c2ccccc2)(c2ccccc2)c2ccccc2)c(OC)c2c1OCO2` please
Completion: True

Prompt: Entry to check: `COc1ccc(CNC(=O)C(=O)[C@H](Cc2ccccc2)NC(=O)c2[nH]c3ccccc3c(=O)c2C)cc1`
Completion: False

Prompt: Entry `O=C(Cc1ccc2c(c1)OCCO2)Nc1nc2ccc(F)cc2s1` please
Completion: False

Prompt: Same for CC1Cc2c(ncn3c(-c4ccc(F)cc4)nnc23)N(C)c2ccccc21 (configuration not stated)
Completion: False

Prompt: Likewise for `CCCCCCCCCCCCCCCCCCOc1ccccc1CC(=O)OCC[N+](CC)(CC)CC` ?
Completion: False

Prompt: Also need `Nc1nn(C(=O)Nc2ccc(Cc3ccccc3)cc2)c2ccc(Cl)cc12` , thanks.
Completion: False

Prompt: Again, but for `COc1ccc(NC2=C(Br)C(=O)C(C)=C(C)C2=O)cc1`
Completion: False

Prompt: For `COc1nc2ccccc2cc1-c1nc2c(cnn2-c2ccccc2)c(=O)[nH]1` then?
Completion: False

Prompt: Would you mind doing `COc1ccc(-c2nc3sc(-c4ccc(Cl)cc4)cn3n2)cc1` as well?
Completion: False

Prompt: Also, COc1ccc(C(Cc2ccccc2)NCCN2CCOCC2)cc1 (configuration not stated) please.
Completion: False

* * *

Entries and their growth values follow.
tested on: IGROV1 ovarian; assay: NCI-60 one-dose screen, 48 h (100 = growth as untreated, 0 = no growth, -100 = all killed); conditions: 10 µM unless noted
About 83,000 compounds went through this panel and 20% of them were active in at least one assay; those are over-represented in the sample as a whole.
Response body: numeric value in %, unit text excluded.

Recorded results for 7 compounds are shown here.
Nc1nc(-c2cccc3ccccc23)cc2ccccc12
-48.5
COc1cc2cc(Oc3ccc(NC(=O)Nc4cc(C(F)(F)F)cc(C(F)(F)F)c4)cc3)c(C)nc2cc1OCCN1CCOCC1
33.5
Cn1cc(-c2ccc3cc(-c4ccc(CC(=O)Nc5cc(C(C)(C)C)nn5C)cc4)cnc3c2)cn1
-1.22
CC(=O)O.CN1[CH-]N(Cc2ccc(C#N)cc2)c2ccccc21.[Ag+]
111
CN(C)CC#Cc1ccc2ncc(C#N)c(Nc3ccc(F)c(Cl)c3)c2c1
3.51
COc1ccc(/C=C/c2c(C(=O)/C=C/c3ccc(Cl)cc3)c(C)nc3ccccc23)cc1
13.6
CC(=O)OC[C@H]1OC(Sc2sc(C(=O)c3ccc(Br)cc3)c(N)c2-c2nc3ccccc3s2)[C@H](OC(C)=O)[C@@H](OC(C)=O)[C@H]1OC(C)=O (stereo partly drawn)
68.8

Consider the record given below.
Prompt: Give IGROV1 ovarian growth for `Fc1cc2c(cc1Cl)N(c1ncnc3ccc(-c4cnc5cnccn45)cc13)CC2`
Completion: 48.2

* * *

system: MALME-3M melanoma; assay: NCI-60 one-dose screen, 48 h; conditions: 10 µM unless noted
Compounds without any hit were thinned out: in the full panel of roughly 83,000, 20% have a hit. The source made the active and inactive calls. Rule for the calls: active = growth percent below 10; inactive = the rest.
The reply should name one outcome from True = active, False = inactive

The following compounds have reported results that may help.
CC1(C)C2CC1C1(/C=N\Nc3ccccc3)C(C2)C(C#N)(C#N)C1(C#N)C#N (stereo unspecified)
False
Cc1cc2[nH]c(=O)c3c4ncccc4cn3c2cc1C
False
COc1cc(C(=O)N2N=C(c3ccc(S(C)(=O)=O)cc3)CC2c2ccco2)cc(OC)c1OC (stereo unspecified)
False

Prompt: Kindly provide the recorded test outcome for the following compound: `COc1cc(C(=O)c2cc(C)c3[nH]c4ccc(C)cc4c3c2C)cc(OC)c1OC`
Completion: False

Prompt: Follow-up entry: `CCOC(=O)/C=C1\S/C(=N\Nc2ccc([N+](=O)[O-])cc2[N+](=O)[O-])N(Cc2ccccc2)C1=O`
Completion: False

Prompt: Further, for `Cc1ccc2sc3c(NCCN)nc4ccccc4c3c(=O)c2c1` ?
Completion: False

Prompt: Moving on to the next compound: `COc1cc2cc(Oc3ccc(NC(=O)Nc4ccc(Cl)c(Cl)c4)cc3)c(C)nc2cc1OCCN1CCOCC1`
Completion: False

Prompt: Same thing, different compound: `O=C(Nc1ccc(I)cc1F)c1cc(I)ccc1O`
Completion: True

Prompt: Check `Cc1ccc(-c2cnc3sc(C(=O)NCCc4ccccc4)c(C)n23)cc1` too.
Completion: False

Prompt: Entry `COc1ccc(/C=C/c2c(C(=O)/C=C/c3ccc(Cl)cc3)c(C)nc3ccccc23)cc1` please
Completion: False
